Tested on: H1975 EGFR-L858R/T790M
Measurement notes: Cell proliferation inhibition experiment (CCK-8), H1975
Format: cell-based
Condition summary: Homo sapiens, NCI-H1975, 72 h
Measurement kind: IC50

Query block: Given O=C(c1cccc(F)c1)c1c[nH]c2nc(Nc3ccc(N4CCOCC4)cc3)nc(N[C@H]3CC[C@H](CO)CC3)c12 , state its recorded IC50.
Result block: < 0.1 µM

Query block: Given C=CC(=O)N1CC[C@@H](Nc2nc(Nc3cnn(C)c3)nc3[nH]cc(C(=O)c4ccc(F)cc4)c23)C1 , state its recorded IC50.
Result block: 0.1 to 1 µM

Query block: Given CN1CCC(n2cc(Nc3nc(N[C@H]4CC[C@@H](CO)CC4)c4c(C(=O)c5ccc(F)cc5)c[nH]c4n3)cn2)CC1 , state its recorded IC50.
Result block: 0.1 to 1 µM
